meta.source: patent US6858638B2

- system-name: human FAK (Homo sapiens, UniProt Q05397)
- Construct: The complete cDNA of human FAK; made in house; host or cells: baculovirus expression system (vector pFastBac HTc)
- Sequence (Q05397 whole entry): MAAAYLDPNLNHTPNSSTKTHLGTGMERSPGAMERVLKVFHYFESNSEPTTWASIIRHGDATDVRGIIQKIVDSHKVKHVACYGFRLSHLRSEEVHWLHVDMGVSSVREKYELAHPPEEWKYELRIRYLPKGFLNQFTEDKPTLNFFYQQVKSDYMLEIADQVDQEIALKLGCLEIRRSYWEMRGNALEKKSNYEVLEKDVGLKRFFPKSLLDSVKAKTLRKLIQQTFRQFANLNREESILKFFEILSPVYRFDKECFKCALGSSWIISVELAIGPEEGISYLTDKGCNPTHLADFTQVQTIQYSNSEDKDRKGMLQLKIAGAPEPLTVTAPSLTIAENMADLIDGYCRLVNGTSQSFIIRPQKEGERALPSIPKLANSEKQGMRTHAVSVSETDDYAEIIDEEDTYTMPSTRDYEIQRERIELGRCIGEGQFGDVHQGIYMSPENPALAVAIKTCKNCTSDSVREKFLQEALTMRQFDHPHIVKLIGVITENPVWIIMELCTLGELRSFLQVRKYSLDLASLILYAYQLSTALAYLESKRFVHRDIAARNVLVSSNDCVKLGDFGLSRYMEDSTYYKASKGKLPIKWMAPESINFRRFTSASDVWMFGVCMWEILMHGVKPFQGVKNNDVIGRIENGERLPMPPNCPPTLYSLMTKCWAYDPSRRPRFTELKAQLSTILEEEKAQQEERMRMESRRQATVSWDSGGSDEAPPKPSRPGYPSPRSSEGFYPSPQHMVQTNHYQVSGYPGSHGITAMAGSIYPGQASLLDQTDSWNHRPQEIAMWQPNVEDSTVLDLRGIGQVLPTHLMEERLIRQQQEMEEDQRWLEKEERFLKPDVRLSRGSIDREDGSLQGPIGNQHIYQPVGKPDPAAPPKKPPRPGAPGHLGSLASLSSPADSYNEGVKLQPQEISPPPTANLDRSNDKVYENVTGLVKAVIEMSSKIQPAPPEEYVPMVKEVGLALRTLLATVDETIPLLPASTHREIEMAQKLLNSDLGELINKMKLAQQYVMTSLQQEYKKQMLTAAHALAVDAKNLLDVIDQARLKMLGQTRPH
- assay-method-text: FAK autophosphorylation inhibition, time resolved fluorescence (HTRF) assay
- Format: biochemical
- protocol-conditions: 10 μM (values without asterisk); read-out: FAK % inhib at 10 μM
I would appreciate it if you labelled entries 1 when inhibition at 10 µM is 90% or higher, otherwise 0.

Prompt line: Please tell me: is the compound `CCCCOc1ccc(S(=O)(=O)Nc2ccc3[nH]nc(-c4ccccc4)c3c2)cc1` at or over 90% in terms of inhibition at 10 µM?
Response line: 0

Prompt line: Please tell me: is the compound `CN(C)c1c(F)c(F)c(S(=O)(=O)Nc2ccc3[nH]nc(-c4cc5ccccc5[nH]4)c3c2)c(F)c1F` at or over 90% in terms of inhibition at 10 µM?
Response line: 0

Prompt line: Please tell me: is the compound `CC1(C)[C@H]2CCC1(CS(=O)(=O)Nc1ccc3[nH]nc(-c4ccccc4)c3c1)C(=O)C2` at or over 90% in terms of inhibition at 10 µM?
Response line: 0

Prompt line: Please tell me: is the compound `CS(=O)(=O)c1ccccc1S(=O)(=O)Nc1ccc2[nH]nc(/C=C/C(=O)O)c2c1.Cl` at or over 90% in terms of inhibition at 10 µM?
Response line: 0

Prompt line: Please tell me: is the compound `O=C(Nc1n[nH]c2ccc(NS(=O)(=O)c3cccc(F)c3)cc12)c1ccccc1` at or over 90% in terms of inhibition at 10 µM?
Response line: 1

Prompt line: Please tell me: is the compound `O=S(=O)(Nc1ccc2[nH]ncc2c1)c1ccc(Cl)c(Cl)c1` at or over 90% in terms of inhibition at 10 µM?
Response line: 0

Prompt line: Please tell me: is the compound `CS(=O)(=O)c1ccccc1S(=O)(=O)Nc1ccc2[nH]nc(-c3ccc(C(=O)O)cc3)c2c1` at or over 90% in terms of inhibition at 10 µM?
Response line: 1

Prompt line: Please tell me: is the compound `CS(=O)(=O)c1ccccc1S(=O)(=O)Nc1ccc2[nH]nc(-c3cccc(Cl)c3)c2c1` at or over 90% in terms of inhibition at 10 µM?
Response line: 1

Prompt line: Please tell me: is the compound `Cc1cccc(-c2n[nH]c3ccc(NS(=O)(=O)c4ccccc4S(C)(=O)=O)cc23)c1` at or over 90% in terms of inhibition at 10 µM?
Response line: 1

Prompt line: Please tell me: is the compound `Cc1cc2[nH]nc(-c3ccccc3)c2cc1NS(=O)(=O)c1ccccc1S(C)(=O)=O` at or over 90% in terms of inhibition at 10 µM?
Response line: 0

Prompt line: Please tell me: is the compound `CCCCN(CCCC)c1cccc2c(S(=O)(=O)Nc3ccc4[nH]nc(-c5ccccc5)c4c3)cccc12` at or over 90% in terms of inhibition at 10 µM?
Response line: 0

Prompt line: Please tell me: is the compound `CS(=O)(=O)c1ccccc1S(=O)(=O)Nc1ccc2[nH]nc(/C=C/c3ccc(Cl)cc3)c2c1` at or over 90% in terms of inhibition at 10 µM?
Response line: 1

Prompt line: Please tell me: is the compound `CS(=O)(=O)c1ccccc1S(=O)(=O)Nc1ccc2[nH]nc(C(=O)NC3CCCCC3)c2c1` at or over 90% in terms of inhibition at 10 µM?
Response line: 0

Prompt line: Please tell me: is the compound `CS(=O)(=O)c1ccccc1S(=O)(=O)Nc1ccc2[nH]nc(-c3ccc(I)cc3)c2c1` at or over 90% in terms of inhibition at 10 µM?
Response line: 0

Prompt line: Please tell me: is the compound `COc1ccc(-c2n[nH]c3ccc(NS(=O)(=O)c4ccccc4S(C)(=O)=O)cc23)cc1OC` at or over 90% in terms of inhibition at 10 µM?
Response line: 1

Prompt line: Please tell me: is the compound `O=S(=O)(Nc1ccc2[nH]nc(-c3ccccc3)c2c1)c1cccc(F)c1` at or over 90% in terms of inhibition at 10 µM?
Response line: 0

Prompt line: Please tell me: is the compound `O=S(=O)(Nc1ccc2[nH]nc(-c3ccccc3)c2c1)c1ccc2ccccc2c1` at or over 90% in terms of inhibition at 10 µM?
Response line: 0

Prompt line: Please tell me: is the compound `CS(=O)(=O)c1ccccc1S(=O)(=O)Nc1ccc2[nH]nc(-c3cccc(Br)c3)c2c1` at or over 90% in terms of inhibition at 10 µM?
Response line: 1

Prompt line: Please tell me: is the compound `O=S(=O)(Nc1ccc2[nH]nc(-c3ccccc3)c2c1)c1cccc(Cl)c1` at or over 90% in terms of inhibition at 10 µM?
Response line: 0

Prompt line: Please tell me: is the compound `CS(=O)(=O)c1ccccc1S(=O)(=O)Nc1ccc2[nH]nc(-c3cccc(O)c3)c2c1` at or over 90% in terms of inhibition at 10 µM?
Response line: 1

Prompt line: Please tell me: is the compound `CS(=O)(=O)c1ccc(F)cc1S(=O)(=O)Nc1ccc2[nH]nc(-c3ccccc3)c2c1` at or over 90% in terms of inhibition at 10 µM?
Response line: 1

Prompt line: Please tell me: is the compound `CS(=O)(=O)c1ccccc1S(=O)(=O)Nc1ccc2[nH]nc(-c3ccc4c(c3)OCO4)c2c1` at or over 90% in terms of inhibition at 10 µM?
Response line: 1

Prompt line: Please tell me: is the compound `O=S(=O)(Nc1ccc2[nH]nc(-c3ccccc3)c2c1)c1cccs1` at or over 90% in terms of inhibition at 10 µM?
Response line: 0

Prompt line: Please tell me: is the compound `CS(=O)(=O)Nc1n[nH]c2ccc(NS(=O)(=O)c3cccc(F)c3)cc12` at or over 90% in terms of inhibition at 10 µM?
Response line: 0

Prompt line: Please tell me: is the compound `CS(=O)(=O)c1ccc(S(=O)(=O)Nc2ccc3[nH]nc(-c4ccccc4)c3c2)cc1` at or over 90% in terms of inhibition at 10 µM?
Response line: 0

Prompt line: Please tell me: is the compound `CS(=O)(=O)Nc1ccc2[nH]nc(-c3ccccc3)c2c1` at or over 90% in terms of inhibition at 10 µM?
Response line: 0

Prompt line: Please tell me: is the compound `CS(=O)(=O)c1ccccc1S(=O)(=O)Nc1ccc2[nH]nc(-c3ccc(-c4ccccc4)cc3)c2c1` at or over 90% in terms of inhibition at 10 µM?
Response line: 0

Prompt line: Please tell me: is the compound `O=S(=O)(Nc1ccc2[nH]nc(-c3ccccc3)c2c1)c1ccccc1Br` at or over 90% in terms of inhibition at 10 µM?
Response line: 0
